Target: Serine/threonine-protein kinase/endoribonuclease IRE1 (Homo sapiens, UniProt O75460); further: in the data inactive means no Kd found up to 30 µM
Sequence (O75460 whole entry): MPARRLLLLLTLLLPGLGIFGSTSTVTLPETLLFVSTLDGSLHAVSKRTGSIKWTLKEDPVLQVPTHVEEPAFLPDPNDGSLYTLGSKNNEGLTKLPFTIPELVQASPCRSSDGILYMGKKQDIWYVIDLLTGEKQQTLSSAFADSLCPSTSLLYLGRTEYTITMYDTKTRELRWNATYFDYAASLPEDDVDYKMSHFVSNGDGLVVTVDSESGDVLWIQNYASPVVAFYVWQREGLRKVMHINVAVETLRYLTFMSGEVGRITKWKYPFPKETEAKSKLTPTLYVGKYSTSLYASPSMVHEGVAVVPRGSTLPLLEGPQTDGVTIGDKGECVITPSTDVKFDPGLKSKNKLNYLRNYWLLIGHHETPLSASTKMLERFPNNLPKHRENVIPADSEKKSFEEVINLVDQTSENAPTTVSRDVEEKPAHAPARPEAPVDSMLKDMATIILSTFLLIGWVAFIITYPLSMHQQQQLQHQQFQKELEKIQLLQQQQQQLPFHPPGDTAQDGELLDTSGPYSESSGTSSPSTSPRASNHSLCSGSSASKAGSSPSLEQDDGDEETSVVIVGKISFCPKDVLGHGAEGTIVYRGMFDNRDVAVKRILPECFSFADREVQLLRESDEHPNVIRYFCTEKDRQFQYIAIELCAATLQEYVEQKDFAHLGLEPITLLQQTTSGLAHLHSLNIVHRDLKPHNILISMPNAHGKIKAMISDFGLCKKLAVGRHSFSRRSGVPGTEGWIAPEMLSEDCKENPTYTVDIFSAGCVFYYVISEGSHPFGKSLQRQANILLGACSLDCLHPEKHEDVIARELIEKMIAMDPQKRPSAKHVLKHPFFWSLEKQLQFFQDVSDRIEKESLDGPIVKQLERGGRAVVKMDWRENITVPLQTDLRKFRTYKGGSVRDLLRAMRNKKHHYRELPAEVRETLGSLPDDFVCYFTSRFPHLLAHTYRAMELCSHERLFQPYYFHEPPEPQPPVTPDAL
Active and inactive are the calls of the source.
Respond only with the outcome that fits, drawn from active, inactive

Illustrative cases are given below, each with its answer.
O=C(c1ccc(F)c(F)c1Nc1ccc(I)cc1F)N1CC(O)([C@@H]2CCCCN2)C1; inactive
CC[C@@H]1C(=O)N(C)c2cnc(Nc3ccc(C(=O)N[C@H]4CC[C@H](N5CCN(CC6CC6)CC5)CC4)cc3OC)nc2N1C(C)C; inactive
CC(=O)Nc1cccc(-n2c(=O)n(C3CC3)c(=O)c3c(Nc4ccc(I)cc4F)n(C)c(=O)c(C)c32)c1; inactive
Cc1nc(N)sc1-c1ccnc(Nc2ccc(N3CCOCC3)cc2)n1; inactive
N[C@@H]1CCCN(c2c(/C=C3\SC(=O)NC3=O)cccc2-c2ccccc2)C1; inactive

Assay result, entry `CC(C)Nc1cc(-c2c[nH]c(C(=O)N[C@H](CO)c3cccc(Cl)c3)c2)c(Cl)cn1` — outcome?
inactive

Assay result, entry `CCCS(=O)(=O)Nc1ccc(F)c(C(=O)c2c[nH]c3ncc(-c4ccc(Cl)cc4)cc23)c1F` — outcome?
inactive

Assay result, entry `COc1cc(N2CCC(N3CCN(C)CC3)CC2)ccc1Nc1ncnc(Nc2ccccc2S(=O)(=O)C(C)C)n1` — outcome?
active

---

Target: Epithelial discoidin domain-containing receptor 1 (Homo sapiens); further: in the data inactive means no Kd found up to 30 µM
Sequence (Q08345 whole entry, the tested form may be a part): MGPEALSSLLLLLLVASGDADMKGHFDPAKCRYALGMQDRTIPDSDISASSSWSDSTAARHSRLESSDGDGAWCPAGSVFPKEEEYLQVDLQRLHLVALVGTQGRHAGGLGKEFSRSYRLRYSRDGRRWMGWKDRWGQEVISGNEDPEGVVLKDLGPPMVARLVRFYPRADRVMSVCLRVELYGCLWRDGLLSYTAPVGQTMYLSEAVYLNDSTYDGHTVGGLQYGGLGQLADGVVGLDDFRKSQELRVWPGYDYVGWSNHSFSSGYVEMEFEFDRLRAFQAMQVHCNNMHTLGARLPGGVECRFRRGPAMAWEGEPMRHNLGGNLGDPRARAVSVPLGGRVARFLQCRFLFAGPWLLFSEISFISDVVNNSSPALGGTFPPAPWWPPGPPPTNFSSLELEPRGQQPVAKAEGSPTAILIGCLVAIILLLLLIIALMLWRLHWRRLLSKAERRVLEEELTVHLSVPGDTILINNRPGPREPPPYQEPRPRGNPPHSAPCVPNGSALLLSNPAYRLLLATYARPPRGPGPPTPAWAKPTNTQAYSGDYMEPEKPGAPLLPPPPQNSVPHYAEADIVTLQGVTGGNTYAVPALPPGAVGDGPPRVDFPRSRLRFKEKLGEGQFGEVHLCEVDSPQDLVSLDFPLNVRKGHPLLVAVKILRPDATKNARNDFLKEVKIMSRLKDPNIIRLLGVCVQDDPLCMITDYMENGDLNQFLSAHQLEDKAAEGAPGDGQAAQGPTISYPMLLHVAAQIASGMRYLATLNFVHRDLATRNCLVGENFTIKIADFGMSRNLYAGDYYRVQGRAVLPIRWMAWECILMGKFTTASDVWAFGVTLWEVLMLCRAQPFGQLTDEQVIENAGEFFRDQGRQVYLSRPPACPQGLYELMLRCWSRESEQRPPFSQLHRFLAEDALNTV
Calls of active or inactive are those of the source.
Respond only with the outcome that fits, drawn from active, inactive

Illustrative cases are given below, each with its answer.
Cc1ccc(-n2nc(C(C)(C)C)cc2NC(=O)NCc2cc(F)ccc2Oc2ccc3c(cnn3CCO)c2)cc1; active
Cc1nc(N)sc1-c1ccnc(Nc2ccc(N3CCOCC3)cc2)n1; inactive
Cn1cc(-c2ccc3nnc(C(F)(F)c4ccc5ncccc5c4)n3n2)cn1; inactive

Assay result, entry `COc1cc2nccc(Oc3ccc(NC(=O)NC4CC4)c(Cl)c3)c2cc1C(N)=O` — outcome?
active

Assay result, entry `COc1cc2nccc(Oc3ccc(NC(=O)Nc4cc(C)on4)c(Cl)c3)c2cc1OC` — outcome?
active

Assay result, entry `OCCn1cc(-c2cnc3nnn(Cc4ccc5ncccc5c4)c3n2)cn1` — outcome?
inactive

Assay result, entry `COC(=O)N[C@@H](C)CNc1nccc(-c2cn(C(C)C)nc2-c2cc(Cl)cc(NS(C)(=O)=O)c2F)n1` — outcome?
inactive

Assay result, entry `O=C(c1ccc(F)c(F)c1Nc1ccc(I)cc1F)N1CC(O)([C@@H]2CCCCN2)C1` — outcome?
inactive

---

Target: Uncharacterized aarF domain-containing protein kinase 5 (Homo sapiens); further: in the data inactive means no Kd found up to 30 µM
Sequence (Q3MIX3 whole entry, the tested form may be a part): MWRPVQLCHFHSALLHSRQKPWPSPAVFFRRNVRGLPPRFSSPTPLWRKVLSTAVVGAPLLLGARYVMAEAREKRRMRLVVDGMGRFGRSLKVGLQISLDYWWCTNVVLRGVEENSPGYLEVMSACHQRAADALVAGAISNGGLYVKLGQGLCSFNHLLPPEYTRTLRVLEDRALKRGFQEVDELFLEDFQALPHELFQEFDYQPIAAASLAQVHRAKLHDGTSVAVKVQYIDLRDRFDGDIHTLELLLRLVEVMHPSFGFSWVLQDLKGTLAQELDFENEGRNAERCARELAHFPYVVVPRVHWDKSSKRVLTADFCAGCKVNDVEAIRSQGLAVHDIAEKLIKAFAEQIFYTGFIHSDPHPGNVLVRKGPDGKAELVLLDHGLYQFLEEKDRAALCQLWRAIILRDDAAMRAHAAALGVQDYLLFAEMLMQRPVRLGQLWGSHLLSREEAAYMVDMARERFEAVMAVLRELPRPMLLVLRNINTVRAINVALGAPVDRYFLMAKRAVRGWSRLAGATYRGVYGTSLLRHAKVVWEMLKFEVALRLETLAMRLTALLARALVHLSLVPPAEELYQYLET
Activity calls are given as the source filed them.
Parameter measured: Kd

Cc1ccc(NC(=O)c2ccc(CN3CC[C@H](N(C)C)C3)c(C(F)(F)F)c2)cc1Nc1nccc(-c2cncnc2)n1 [BAFETINIB]; > 30 µM (inactive)
CCc1cnn2c(NCc3ccc[n+]([O-])c3)cc(N3CCCC[C@H]3CCO)nc12 [DINACICLIB]; > 30 µM (inactive)
O=C1NC(=O)/C(=C/c2ccc3nccc(-c4ccncc4)c3c2)S1 [GSK-1059615]; > 30 µM (inactive)

Please turn your attention to the following entry.
compound CC[C@H](Nc1ncnc2[nH]cnc12)c1nc2cccc(F)c2c(=O)n1-c1ccccc1 [IDELALISIB] , Kd observed: > 30 µM (inactive)

---

Activity calls are given as the source filed them.
Dual specificity testis-specific protein kinase 2 (Homo sapiens) data, read-out Kd; further: in the data inactive means no Kd found up to 30 µM
Sequence (Q96S53 whole entry): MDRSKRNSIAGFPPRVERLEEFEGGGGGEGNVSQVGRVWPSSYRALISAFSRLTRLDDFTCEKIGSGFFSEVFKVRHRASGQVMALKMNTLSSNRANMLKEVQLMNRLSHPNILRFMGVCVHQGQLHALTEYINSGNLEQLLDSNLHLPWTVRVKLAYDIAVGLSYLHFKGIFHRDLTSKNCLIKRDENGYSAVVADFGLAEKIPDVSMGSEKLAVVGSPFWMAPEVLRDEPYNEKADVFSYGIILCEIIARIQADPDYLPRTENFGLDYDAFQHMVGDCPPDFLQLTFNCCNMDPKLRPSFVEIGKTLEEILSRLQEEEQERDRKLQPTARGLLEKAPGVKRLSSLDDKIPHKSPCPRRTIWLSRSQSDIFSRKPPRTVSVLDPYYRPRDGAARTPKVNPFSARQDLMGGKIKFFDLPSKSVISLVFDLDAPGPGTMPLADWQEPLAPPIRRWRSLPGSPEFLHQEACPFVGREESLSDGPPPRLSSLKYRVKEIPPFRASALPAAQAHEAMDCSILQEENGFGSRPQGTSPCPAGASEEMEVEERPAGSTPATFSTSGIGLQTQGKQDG

Worked examples follow.
CC[C@@H]1C(=O)N(C)c2cnc(Nc3ccc(C(=O)N[C@H]4CC[C@H](N5CCN(CC6CC6)CC5)CC4)cc3OC)nc2N1C(C)C [VOLASERTIB]; > 30 µM (inactive)
COC(=O)[C@@]1(O)C[C@H]2O[C@]1(C)n1c3ccccc3c3c4c(c5c6ccccc6n2c5c31)C(=O)NC4 [K-252A]; > 30 µM (inactive)

Case Cc1c(F)cc(C(=O)NC2CC2)cc1-c1ccc(C(=O)NCC(C)(C)C)cn1 [LOSMAPIMOD] , Dual specificity testis-specific protein kinase 2 (Homo sapiens), Kd recorded as > 30 µM (inactive)
